Measured values drawn from patent US20220267469A1 for this set.

- targetSystem: T1, Human BSSL (bile salt-stimulated lipase), native (human, UniProt P19835 21-753)
- T1 construct: Native full-length protein purified from human milk (Astra Hässle AB); also called hBSSL; non-biotinylated human BSSL
- T1 sequence: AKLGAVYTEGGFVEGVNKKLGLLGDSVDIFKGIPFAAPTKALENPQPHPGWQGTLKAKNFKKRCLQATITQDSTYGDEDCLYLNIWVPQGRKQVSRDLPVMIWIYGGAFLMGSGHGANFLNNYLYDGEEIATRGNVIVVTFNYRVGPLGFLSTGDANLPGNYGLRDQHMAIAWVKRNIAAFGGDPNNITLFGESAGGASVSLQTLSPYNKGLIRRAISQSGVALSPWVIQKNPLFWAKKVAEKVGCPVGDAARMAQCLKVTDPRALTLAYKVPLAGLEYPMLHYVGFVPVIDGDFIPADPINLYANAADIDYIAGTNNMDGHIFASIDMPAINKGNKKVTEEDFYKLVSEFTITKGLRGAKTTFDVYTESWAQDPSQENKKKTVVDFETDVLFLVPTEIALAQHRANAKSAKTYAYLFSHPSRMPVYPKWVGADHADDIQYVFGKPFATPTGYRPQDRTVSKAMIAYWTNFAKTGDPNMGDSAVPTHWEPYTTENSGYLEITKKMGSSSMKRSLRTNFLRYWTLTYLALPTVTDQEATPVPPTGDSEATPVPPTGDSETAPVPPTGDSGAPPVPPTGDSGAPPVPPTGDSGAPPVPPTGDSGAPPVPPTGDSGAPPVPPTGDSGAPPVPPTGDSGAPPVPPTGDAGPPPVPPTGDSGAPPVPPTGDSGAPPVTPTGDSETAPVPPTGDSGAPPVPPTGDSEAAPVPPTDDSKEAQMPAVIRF
- assayProtocol: SPR single cycle kinetics, hIgG4 S228P captured by anti-Fab
Checkbox rule: Kd lower than 4 nM = True; Kd not lower than 4 nM = False.

binder | label
S-SL048-89 hIgG4 S228P (antibody, V domains shown, Tested as human IgG4 S228P) VH: QVQLVQSGAEVKKPGASVKVSCKASGYTFTSYNMHWVRQAPGQGLEWMGVINPSSGSTSYTQKFQGRVTMTRDTSTSTVYMELSSLRSEDTAVYYCARDYYGSSPLGYWGQGTLVTVSS VL: DIQMTQSPSSLSASVGDRVTITCRASPSISYLNWYQQKPGKAPKLLIYATSRLPSGVPSRFSGSGSGTDFTLTISSLQPEDFATYYCQQRSSNPTFGQGTKLEIK | False
S-SL048-10 hIgG4 S228P (antibody, V domains shown, Tested as human IgG4 S228P) VH: QVQLVQSGAEVKKPGASVKVSCKASGYTFTSYNMHWVRQAPGQGLEWIGVINPSDGYTSYAQKFQGRVTMTRDTSTSTVYMELSSLRSEDTAVYYCARDYYGSSPLGYWGQGTLVTVSS VL: DIQMTQSPSSLSASVGDRVTITCRASPSISYLNWYQQKPGKAPKLLIYATSRLPSGVPSRFSGSGSGTDFTLTISSLQPEDFATYYCQQRSSSPTFGQGTKLEIK | True
S-SL048-81 hIgG4 S228P (antibody, V domains shown, Tested as human IgG4 S228P) VH: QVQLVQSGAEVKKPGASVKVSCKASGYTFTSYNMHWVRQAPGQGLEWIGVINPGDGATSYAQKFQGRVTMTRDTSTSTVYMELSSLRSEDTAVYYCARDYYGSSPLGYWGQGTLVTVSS VL: DIQMTQSPSSLSASVGDRVTITCRASSSISYMHWYQQKPGKAPKLLIYAASSLQSGVPSRFSGSGSGTDFTLTISSLQPEDFATYYCHQRSSSPTFGQGTKLEIK | False
S-SL048-105 hIgG4 S228P (antibody, V domains shown, Tested as human IgG4 S228P) VH: QVQLVQSGAEVKKPGASVKVSCKASGYTFTSYNMHWVRQAPGQGLEWMGVINPSDGATSYAQKFQGRVTMTRDTSTSTVYMELSSLRSEDTAVYYCARDYYGSSPLGYWGQGTLVTVSS VL: DIQMTQSPSSLSASVGDRVTITCSASQSISYLHWYQQKPGKAPKLLIYAASKLPSGVPSRFSGSGSGTDFTLTISSLQPEDFATYYCHQRSSYPTFGQGTKLEIK | False
S-SL048-17 hIgG4 S228P (antibody, V domains shown, Tested as human IgG4 S228P) VH: QVQLVQSGAEVKKPGASVKVSCKASGYTFTSYNMHWVRQAPGQGLEWMGVINPGDGYTSYTQKFKGRVTMTRDTSTSTVYMELSSLRSEDTAVYYCARDYYGSSPLGYWGQGTLVTVSS VL: DIQMTQSPSSLSASVGDRVTITCRASQSISYLNWYQQKPGKAPKLLIYAASKLPSGVPSRFSGSGSGTDFTLTISSLQPEDFATYYCQQRSSSPTFGQGTKLEIK | False

Just wondering, is Kd of S-SL048-86 hIgG4 S228P (antibody, V domains shown, Tested as human IgG4 S228P) VH: QVQLVQSGAEVKKPGASVKVSCKASGYTFTSYNMHWVRQAPGQGLEWMGVINPGDGATSYAQKFQGRVTMTRDTSTSTVYMELSSLRSEDTAVYYCARDYYGSSPLGYWGQGTLVTVSS VL: DIQMTQSPSSLSASVGDRVTITCRASQSISYLHWYQQKPGKAPKLLIYATSSLQSGVPSRFSGSGSGTDFTLTISSLQPEDFATYYCHQRSSYPTFGQGTKLEIK below 4 nM?
False

Lab log: compare recorded Kd with 4 nM; is it strictly lower for S-SL048-109 hIgG4 S228P (antibody, V domains shown, Tested as human IgG4 S228P) VH: QVQLVQSGAEVKKPGASVKVSCKASGYTFTSYNMHWVRQAPGQGLEWMGVINPSDGATSYAQKFKGRVTMTRDTSTSTVYMELSSLRSEDTAVYYCARDYYGSSPLGYWGQGTLVTVSS VL: DIQMTQSPSSLSASVGDRVTITCRASPSISYLNWYQQKPGKAPKLLIYATSRLASGVPSRFSGSGSGTDFTLTISSLQPEDFATYYCQQRSSSPTFGQGTKLEIK ?
True

Item S-SL048-46 hIgG4 S228P (antibody, V domains shown, also called clone 46; mAb46) VH: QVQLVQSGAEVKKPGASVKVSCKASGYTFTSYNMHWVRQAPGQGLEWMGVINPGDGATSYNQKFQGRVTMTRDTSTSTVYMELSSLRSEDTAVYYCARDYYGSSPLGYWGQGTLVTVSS VL: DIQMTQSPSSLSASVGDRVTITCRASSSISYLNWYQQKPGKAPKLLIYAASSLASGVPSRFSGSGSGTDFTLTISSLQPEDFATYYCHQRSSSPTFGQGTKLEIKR : Kd beneath 4 nM, strictly?
True

Decide: Kd of S-SL048-107 hIgG4 S228P (antibody, V domains shown, Tested as human IgG4 S228P) VH: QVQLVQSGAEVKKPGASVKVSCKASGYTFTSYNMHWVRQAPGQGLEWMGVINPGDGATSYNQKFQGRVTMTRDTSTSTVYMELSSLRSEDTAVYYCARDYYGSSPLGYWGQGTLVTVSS VL: DIQMTQSPSSLSASVGDRVTITCRASPSISYLNWYQQKPGKAPKLLIYATSSLPSGVPSRFSGSGSGTDFTLTISSLQPEDFATYYCQQRSSSPTFGQGTKLEIK strictly below 4 nM?
True

Please check: Kd for S-SL048-13 hIgG4 S228P (antibody, V domains shown, Tested as human IgG4 S228P) VH: QVQLVQSGAEVKKPGASVKVSCKASGYTFTSYNMHWVRQAPGQGLEWIGVINPSDGATSYTQKFQGRVTMTRDTSTSTVYMELSSLRSEDTAVYYCARDYYGSSPLGYWGQGTLVTVSS VL: DIQMTQSPSSLSASVGDRVTITCSASPSISYLNWYQQKPGKAPKLLIYATSSLASGVPSRFSGSGSGTDFTLTISSLQPEDFATYYCQQRSSSPTFGQGTKLEIK , strictly under 4 nM or not?
True
